# procedure_details: Half life in Wistar rat at 0.3 to 1 mg/kg, iv administered as bolus dose by LC-MS/MS analysis
# Assay type: ADME, organism-based
# measurement_context: in vivo, dose 0.3-1 mg/kg

compound	half-life / h
Cc1c(-c2ccccc2)nc2ccc(Br)cc2c1C(=O)NC12CCC(C(=O)O)(CC1)CC2	15
Cc1c(-c2ccccc2)nc2ccc(Br)cc2c1C(=O)NCC(CCC(=O)O)c1ccccc1Cl (single isomer, unassigned; (+))	5.5
Cc1c(-c2ccccc2)nc2ccc(Br)cc2c1C(=O)NCC(CC(=O)O)c1ccccc1Cl (single isomer, unassigned; (+))	2.6
Cc1c(-c2ccccc2)nc2ccc(Br)cc2c1C(=O)Nc1ccc(C(=O)O)cc1F	3.1
